Measured FITC- (%) values are reported for all entries that follow.
Molecular target: T1, HER2 on the surface of HER2+ cancer cells (BT474, SKOV-3) (human, UniProt P04626 23-1255)
T1 construct: whole, on cells; also called human epidermal growth factor receptor 2
Assay: flow cytometry on SKOV-3 cells (HER2+), 100 nM binding sites
Protocol: OVASC-1 is an ascites-derived epithelial ovarian cancer cells obtained from a patient with advanced metastatic disease (11, 12). The expressed VHHs were then incubated with HER2⁺ (BT474, JIMT-1, and SKOV-3) and HER2⁻ (MDA-MB-231) cancer cell lines. Approximately 10⁶ cells were counted and washed using DPBS-1% FBS. […] Cells were washed three times and then analyzed using Beckman-Coulter Gallios flow cytometer at Rutgers Flow cytometry core facility. […]

Binder: F2 anti-HER2 VHH (VHH) VHH: QVQLQESGGGLVQAGGSLKLSCAASGRTLSAYVVGWFRQAPGRERESVAAIGWSTHSVYYADSVKGRFTISRDNTENTVYLQMNSLKPDDTAVYYCAADSSPRRWDRESDFGSWGQGTQVTVSS
FITC- (%): 6.68%

Binder: H7 anti-HER2 VHH (VHH) VHH: QVQLQESGGGLVQAGGSLRLSCAASGHTLSTYVVAWFRQAPGKERESVAAIGWSTRSPYYADSVKGRFTISEDNTKNTVYLQMNSLKPDDTAVYYCAADSYPRRWDRESDFGSWGQGTQVTVSS
FITC- (%): 5.02%

Binder: A1 anti-HER2 VHH (VHH, Llama VHH expressed in WK6 E. coli with C-terminal c-myc and His tags; also called A1 clone) VHH: QVQLQESGGGLVQPGGSLRLSCAASGHTLSTYVVAWFRQAPGKERESVAAIGWSSRSPYYPDSVKGRFTISEDNTKNTVYLQMNSLKPDDTAVYYCAADSYPRRWDRESDFGSWGQGTQVTVSS
FITC- (%): 5.78%

Binder: D6 anti-HER2 VHH (VHH) VHH: QVQLQESGGGLVQAGGSLTLSCAASGRTFSTYVVGWFRQAPGKERESVAAIGWASNSPYYADSVKGRFTISRDNTKNTVYLQMKSLKPDDTAVYYCAADSYPRRWDRESDFGSWGQGTQVTVSS
FITC- (%): 5.24%

Where do the numbers come from? From patent US20250340649A1.
